Origin of values: patent US9474758B2

Below, each entry is listed alongside its reported inhibition at 10 µM.
target_or_test_system: Human TRPA1 expressing CHO cells (Homo sapiens, UniProt O75762)
Construct: expressed in transfected cells; host or cells: CHO cells (G-418 selection)
Sequence (O75762 whole entry): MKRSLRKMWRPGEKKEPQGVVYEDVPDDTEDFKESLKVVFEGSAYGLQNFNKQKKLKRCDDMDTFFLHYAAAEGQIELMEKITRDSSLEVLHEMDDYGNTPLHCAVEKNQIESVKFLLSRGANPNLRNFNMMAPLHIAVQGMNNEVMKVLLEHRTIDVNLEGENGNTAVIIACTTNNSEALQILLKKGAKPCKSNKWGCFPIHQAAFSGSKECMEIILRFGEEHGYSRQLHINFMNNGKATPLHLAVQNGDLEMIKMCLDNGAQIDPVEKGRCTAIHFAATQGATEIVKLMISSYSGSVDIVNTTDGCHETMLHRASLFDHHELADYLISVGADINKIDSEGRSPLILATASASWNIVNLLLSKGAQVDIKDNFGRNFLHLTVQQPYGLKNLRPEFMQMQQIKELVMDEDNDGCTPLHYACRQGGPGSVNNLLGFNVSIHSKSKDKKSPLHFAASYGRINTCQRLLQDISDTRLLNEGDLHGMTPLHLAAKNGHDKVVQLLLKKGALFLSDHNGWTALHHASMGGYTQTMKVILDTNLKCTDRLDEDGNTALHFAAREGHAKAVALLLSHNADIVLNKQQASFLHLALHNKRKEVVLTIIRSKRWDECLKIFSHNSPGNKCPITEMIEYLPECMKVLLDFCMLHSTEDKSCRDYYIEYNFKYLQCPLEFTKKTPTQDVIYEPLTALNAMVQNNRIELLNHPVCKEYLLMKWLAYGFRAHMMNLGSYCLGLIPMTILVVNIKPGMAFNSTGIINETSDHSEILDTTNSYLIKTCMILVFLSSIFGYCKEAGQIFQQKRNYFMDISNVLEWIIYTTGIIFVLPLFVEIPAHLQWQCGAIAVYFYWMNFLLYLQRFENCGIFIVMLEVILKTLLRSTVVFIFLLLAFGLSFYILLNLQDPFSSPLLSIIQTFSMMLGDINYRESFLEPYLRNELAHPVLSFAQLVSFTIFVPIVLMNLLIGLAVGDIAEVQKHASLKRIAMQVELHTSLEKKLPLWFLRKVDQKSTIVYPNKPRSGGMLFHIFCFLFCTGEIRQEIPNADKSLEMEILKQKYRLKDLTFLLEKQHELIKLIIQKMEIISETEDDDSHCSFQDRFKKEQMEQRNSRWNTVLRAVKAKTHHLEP
experimental_protocol: 45Calcium uptake assay, inhibition of AITC induced calcium uptake (human)
Assay type: cell-based
condition_details: human TRPA1 CHO cells, AITC 30 μM, compound 10.0 μM; read-out: Percentage inhibition at 10.0 μM
Quick reminder: number only, in %, skip the unit.

[
  {
    "structure": "Cn1c(=O)c2c(CC(=O)Nc3nc(-c4ccc(Cl)cc4)cs3)csc2n(C)c1=O",
    "measure": "inhibition at 10 µM",
    "test_result": 98.8
  },
  {
    "structure": "Cn1c(=O)c2c(CC(=O)Nc3nc(-c4cc(F)cc(C(F)(F)F)c4)cs3)csc2n(C)c1=O",
    "measure": "inhibition at 10 µM",
    "test_result": 99.9
  }
]

IN: Could you share which inhibition at 10 µM value was measured for Cn1c(=O)c2c(CC(=O)Nc3nc(-c4ccc(F)c(OC(F)(F)F)c4)cs3)scc2n(C)c1=O ?
OUT: 99.8

IN: Lookup Cn1c(=O)c2c(CC(=O)Nc3ccn(-c4ccc(Br)cc4)n3)csc2n(C)c1=O
OUT: 100

###

target_or_test_system: Rat TRPA1 expressing CHO cells (Rattus norvegicus)
Construct: expressed in transfected cells; host or cells: CHO cells (Zeocin selection)
Sequence (Q6RI86 whole entry): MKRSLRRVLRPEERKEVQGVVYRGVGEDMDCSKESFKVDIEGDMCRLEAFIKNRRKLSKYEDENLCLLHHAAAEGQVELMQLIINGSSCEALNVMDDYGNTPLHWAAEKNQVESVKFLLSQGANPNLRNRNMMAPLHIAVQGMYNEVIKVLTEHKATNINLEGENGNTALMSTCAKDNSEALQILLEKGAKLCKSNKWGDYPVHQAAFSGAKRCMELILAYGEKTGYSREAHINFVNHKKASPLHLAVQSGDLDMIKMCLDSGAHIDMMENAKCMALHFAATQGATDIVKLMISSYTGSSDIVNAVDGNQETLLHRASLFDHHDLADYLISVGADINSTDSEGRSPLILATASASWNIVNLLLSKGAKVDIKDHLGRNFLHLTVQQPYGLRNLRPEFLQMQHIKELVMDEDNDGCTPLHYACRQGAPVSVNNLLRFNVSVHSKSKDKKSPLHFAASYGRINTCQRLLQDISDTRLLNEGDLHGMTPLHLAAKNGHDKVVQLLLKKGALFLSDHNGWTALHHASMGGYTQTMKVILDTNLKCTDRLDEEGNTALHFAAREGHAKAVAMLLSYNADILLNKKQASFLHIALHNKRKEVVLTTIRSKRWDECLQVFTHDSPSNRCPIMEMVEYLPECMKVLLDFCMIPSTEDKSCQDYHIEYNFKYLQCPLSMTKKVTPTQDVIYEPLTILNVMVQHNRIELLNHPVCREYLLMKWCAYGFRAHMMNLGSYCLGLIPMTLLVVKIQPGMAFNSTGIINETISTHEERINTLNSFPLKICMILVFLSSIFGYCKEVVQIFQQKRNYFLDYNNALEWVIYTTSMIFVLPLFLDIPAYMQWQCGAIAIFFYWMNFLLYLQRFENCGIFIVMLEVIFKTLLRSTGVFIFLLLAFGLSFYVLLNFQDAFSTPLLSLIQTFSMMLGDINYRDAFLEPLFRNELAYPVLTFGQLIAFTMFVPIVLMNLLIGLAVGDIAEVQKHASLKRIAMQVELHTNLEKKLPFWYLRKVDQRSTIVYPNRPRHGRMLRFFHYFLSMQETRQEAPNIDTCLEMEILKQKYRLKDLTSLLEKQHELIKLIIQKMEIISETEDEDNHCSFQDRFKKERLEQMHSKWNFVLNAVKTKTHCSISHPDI
experimental_protocol: 45Calcium uptake assay, inhibition of AITC induced calcium uptake (rat)
Format: cell-based
condition_details: rat TRPA1 CHO cells, AITC 10 μM; read-out: Rat IC50 value (Range)
measure: IC50

The following molecules have reported results that may help.
[
  {
    "structure": "CCc1sc2c(c1CC(=O)Nc1nc(-c3cc(F)c(OCC(F)(F)F)c(F)c3)cs1)c(=O)n(C)c(=O)n2C",
    "IC50": "0.05 to 0.5 µM"
  },
  {
    "structure": "Cn1c(=O)c2c(CC(=O)Nc3nc(-c4ccc(OC(F)(F)F)c(F)c4)cs3)csc2n(C)c1=O",
    "IC50": "< 0.05 µM"
  },
  {
    "structure": "CCc1sc2c(c1CC(=O)Nc1nc(-c3ccc(F)c(C(F)(F)F)c3F)cs1)c(=O)n(C)c(=O)n2C",
    "IC50": "< 0.05 µM"
  },
  {
    "structure": "CC(C)c1sc2c(c1CC(=O)Nc1nc(-c3ccc(C(F)(F)F)c(F)c3)cs1)c(=O)n(C)c(=O)n2C",
    "IC50": "< 0.05 µM"
  },
  {
    "structure": "Cn1c(=O)c2c(CC(=O)Nc3nc(-c4ccc(F)c(C(F)(F)F)c4)cs3)csc2n(C)c1=O",
    "IC50": "0.05 to 0.5 µM"
  }
]

Now for another entry.
IN: Recorded IC50 for Cn1c(=O)c2c(CC(=O)Nc3nc(-c4cccc(C(F)(F)F)c4)cs3)scc2n(C)c1=O with Rat TRPA1 expressing CHO cells (Rattus norvegicus), please?
OUT: 0.05 to 0.5 µM

###

target_or_test_system: Human TRPA1 expressing CHO cells (Homo sapiens)
Construct: expressed in transfected cells; host or cells: CHO cells (G-418 selection)
experimental_protocol: 45Calcium uptake assay, inhibition of AITC induced calcium uptake (human)
Assay type: cell-based
condition_details: human TRPA1 CHO cells, AITC 30 μM, compound 1.0 μM; read-out: Percentage inhibition at 1.0 μM
measure: inhibition at 1 µM

Below are worked cases with known answers.
[
  {
    "structure": "Cn1c(=O)c2c(CC(=O)Nc3cc(-c4ccc(Br)cc4)on3)csc2n(C)c1=O",
    "inhibition at 1 µM": "47.8%"
  },
  {
    "structure": "Cc1sc2c(c1CC(=O)Nc1nc(-c3ccc(F)c(C(F)(F)F)c3F)cs1)c(=O)n(C)c(=O)n2C",
    "inhibition at 1 µM": "93.2%"
  }
]

IN: Short answer please: inhibition at 1 µM, Human TRPA1 expressing CHO cells (Homo sapiens), entry Cn1c(=O)c2c(CC(=O)Nc3nc(-c4cccc(C(F)(F)F)c4)cs3)scc2n(C)c1=O
OUT: 93.9%
